Entries and their growth
- Tested on: SW-620 colon
- protocolDescription: NCI-60 one-dose screen, 48 h (100 = growth as untreated, 0 = no growth, -100 = all killed)
- conditionNotes: 10 µM unless noted
- Method: Growth inhibition of the SW-620 human tumor cell line is measured as a screen for anti-cancer activity. Cells are grown in 96 well plates and exposed to the test compound for 48 hours. Compounds are tested at a single concentration, which is 10^-5 M for most compounds. The reported endpoint is percent growth (GI% or GIPRCNT), where numbers from 0 - 100% represent growth inhibition, and numbers from -100% - 0 represent cell death. For example, a value of 40 represents 60% growth inhibition. […]
About 83,000 compounds went through this panel and 20% of them were active in at least one assay; those are over-represented in the sample as a whole. Active and inactive are the calls of the source. The calls were made as follows: active = growth percent below 10; inactive = the rest.
quantity: growth

[[record]]
structureassmiles = "O=c1c2c3c(sc2n2cnnc2n1Cc1ccccc1)CCCC3"
testsystem = "SW-620 colon"
obsvalue = "113% (inactive)"

[[record]]
structureassmiles = "COc1ccc(N(c2nc(-c3ccc([N+](=O)[O-])cc3)cs2)C(C)C)cc1"
testsystem = "SW-620 colon"
obsvalue = "88.1% (inactive)"

[[record]]
structureassmiles = "COc1cc2c(=O)[nH]c3cc([N+](=O)[O-])ccc3c2cc1[N+](=O)[O-]"
testsystem = "SW-620 colon"
obsvalue = "35.5% (inactive)"

[[record]]
structureassmiles = "O=[N+]([O-])c1cccc(N=NNc2cccc([N+](=O)[O-])c2)c1"
testsystem = "SW-620 colon"
obsvalue = "91.7% (inactive)"

[[record]]
structureassmiles = "CCCCCCCCCCCCNC(=S)N/N=C/c1ccccc1O"
testsystem = "SW-620 colon"
obsvalue = "91.8% (inactive)"

[[record]]
structureassmiles = "O=C(OCc1ccc2c(Cl)cc(Cl)c(O)c2n1)N1CCNCC1"
testsystem = "SW-620 colon"
obsvalue = "26.2% (inactive)"

[[record]]
structureassmiles = "c1cc2ccc3cc2cc1CNCCN1CCNCc2ccc4ccc(cc4c2)CNCCN(CCNC3)CCNCc2ccc3ccc(cc3c2)CNCC1"
testsystem = "SW-620 colon"
obsvalue = "23.4% (inactive)"

[[record]]
structureassmiles = "Cc1nc(Cl)cc(N(c2cc(Cl)nc(C)n2)c2ncc(C(=O)Nc3c(C)cccc3Cl)s2)n1"
testsystem = "SW-620 colon"
obsvalue = "96.6% (inactive)"

[[record]]
structureassmiles = "CC(C)(C)c1cc(C(=O)N2CCC(C(=O)NCCN)CC2)cc(C(C)(C)C)c1"
testsystem = "SW-620 colon"
obsvalue = "103% (inactive)"

[[record]]
structureassmiles = "Nc1ccc(Cl)c([N+](=O)[O-])c1"
testsystem = "SW-620 colon"
obsvalue = "104% (inactive)"

[[record]]
structureassmiles = "[2H]C1([2H])CCN(C(=O)C2CC2)c2cc(NS(=O)(=O)c3ccc(-c4cccc(C(N)=O)c4)cc3)ccc21"
testsystem = "SW-620 colon"
obsvalue = "31% (inactive)"

[[record]]
structureassmiles = "Cn1cc(-c2nnc(-c3cn(C)c4ncccc34)o2)c2ccccc21"
testsystem = "SW-620 colon"
obsvalue = "26.7% (inactive)"

[[record]]
structureassmiles = "CCCSc1nc(N)nc2nc[nH]c12"
testsystem = "SW-620 colon"
obsvalue = "113% (inactive)"

[[record]]
structureassmiles = "CCCCNC(=O)NS(=O)(=O)Cc1ccccc1"
testsystem = "SW-620 colon"
obsvalue = "108% (inactive)"

[[record]]
structureassmiles = "O=C(N=c1n(-c2ccccc2)nc2n1CCN2C1=NCCN1)c1ccc(Cl)cc1"
testsystem = "SW-620 colon"
obsvalue = "79.5% (inactive)"

[[record]]
structureassmiles = "CC1=CC[C@@H]2C(C)(C)C(=O)CC[C@@]2(C)[C@@H]1COc1ccc2ccc(=O)oc2c1"
testsystem = "SW-620 colon"
obsvalue = "101% (inactive)"

[[record]]
structureassmiles = "C[C@H]1[C@H](C)CC[C@]2(C(=O)O)CC[C@]3(C)C(=CC[C@@H]4[C@@]5(C)C/C(=C/c6cccnc6)[C@H](O)C(C)(C)[C@@H]5CC[C@]43C)[C@H]12"
testsystem = "SW-620 colon"
obsvalue = "14.9% [100 µM] (inactive)"

[[record]]
structureassmiles = "CCOC(=O)c1ccc2nc(-c3c(C)nn(-c4ccccc4)c3N3CCOCC3)[nH]c2c1"
testsystem = "SW-620 colon"
obsvalue = "97.3% (inactive)"

[[record]]
structureassmiles = "COc1cc(-c2nc(SCCC(C)C)nc(Nc3ccc(S(N)(=O)=O)cc3)c2C#N)cc(OC)c1OC"
testsystem = "SW-620 colon"
obsvalue = "36.3% (inactive)"

[[record]]
structureassmiles = "O=C(NCCCNC(=O)OCc1ccc2cccc(O)c2n1)OCc1ccc2cccc(O)c2n1"
testsystem = "SW-620 colon"
obsvalue = "4.75% (active)"

[[record]]
structureassmiles = "CN(C)CCCNc1nc(-c2cccc(C(Cl)(Cl)Cl)c2)nc(C(Cl)(Cl)Cl)n1"
testsystem = "SW-620 colon"
obsvalue = "98.8% (inactive)"

[[record]]
structureassmiles = "O=C(N/N=C/c1c(Cl)cccc1Cl)c1cccc(Nc2ccnc(C(F)(F)F)c2)c1"
testsystem = "SW-620 colon"
obsvalue = "99% (inactive)"

[[record]]
structureassmiles = "COc1cc(-c2cc(-c3ccc(Nc4ncnc5cc(Cl)ccc45)cc3)nc(N3CCCCC3)n2)cc(OC)c1OC"
testsystem = "SW-620 colon"
obsvalue = "97.7% (inactive)"

